- assayTarget: cathepsin B (Capra hircus)
# Ki per record follows
Supply the numeric figure in µM, leaving out any unit text.

| compound | attributeMeasured | observed |
| --- | --- | --- |
| O=C(/C=C/c1ccccc1Cl)c1ccccc1 [Compound 1a] | Ki | 19.5 |
| COc1ccccc1C1CC(c2ccccc2)=NN1C(N)=O (stereo not drawn) [Compound 3d] | Ki | 14.8 |
| O=C(/C=C/c1cccc([N+](=O)[O-])c1)c1ccccc1 [Compound 1g] | Ki | 100 |
| Cc1ccc(C2CC(c3ccccc3)=NN2C(N)=O)cc1 (stereo not drawn) [Compound 3j] | Ki | 116 |

In: Return Ki (reported value) for this compound: NC(=O)N/N=C(\C=C\c1ccc(Cl)cc1)c1ccccc1 [2c′]
Out: 36.4

In: Return Ki (reported value) for this compound: O=C(/C=C/c1cccc(Cl)c1)c1ccccc1 [Compound 1b]
Out: 130

In: Return Ki (reported value) for this compound: NC(=O)N1N=C(c2ccccc2)CC1c1ccccc1Cl (stereo not drawn) [Compound 3a]
Out: 9.4

###

- assayTarget: cathepsin H (Capra hircus, UniProt A0A452G5L2)
- Sequence (A0A452G5L2 with tags, fused parts or gaps): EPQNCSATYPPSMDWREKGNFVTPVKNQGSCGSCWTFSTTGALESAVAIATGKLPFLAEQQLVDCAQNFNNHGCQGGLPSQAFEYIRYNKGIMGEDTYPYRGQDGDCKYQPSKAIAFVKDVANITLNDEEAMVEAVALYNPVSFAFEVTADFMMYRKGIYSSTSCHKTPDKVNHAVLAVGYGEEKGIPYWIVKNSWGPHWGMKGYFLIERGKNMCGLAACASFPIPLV
attributeMeasured: Ki (µM)
Supply the numeric figure in µM, leaving out any unit text.

Here are 5 compounds together with their reported answers.
| compound | measurementUnits | Ki |
| --- | --- | --- |
| NC(=O)N/N=C(\C=C\c1ccc(Cl)cc1)c1ccccc1 | µM | 21 |
| O=C(/C=C/c1cccc(Cl)c1)c1ccccc1 | µM | 312 |
| COc1cccc(C2CC(c3ccccc3)=NN2C(N)=O)c1 (stereo not shown) | µM | 43 |
| NC(=O)N1N=C(c2ccccc2)CC1c1cccc(Cl)c1 (stereo not shown) | µM | 25 |
| NC(=O)N1N=C(c2ccccc2)CC1c1ccc([N+](=O)[O-])cc1 (stereo not shown) | µM | 60 |

In: Specify the recorded Ki for "NC(=O)N/N=C(/C=C/c1ccccc1Cl)c1ccccc1" , system: cathepsin H (Capra hircus, UniProt A0A452G5L2).
Out: 43

In: Specify the recorded Ki for Cc1ccc(C2CC(c3ccccc3)=NN2C(N)=O)cc1 (stereo not shown) , system: cathepsin H (Capra hircus, UniProt A0A452G5L2).
Out: 48

In: Specify the recorded Ki for "NC(=O)N/N=C(/C=C/c1ccc(Cl)cc1)c1ccccc1" , system: cathepsin H (Capra hircus, UniProt A0A452G5L2).
Out: 29

In: Specify the recorded Ki for COc1ccc(C2CC(c3ccccc3)=NN2C(N)=O)cc1 (stereo not shown) , system: cathepsin H (Capra hircus, UniProt A0A452G5L2).
Out: 48

In: Specify the recorded Ki for "NC(=O)N/N=C(\C=C\c1ccccc1Cl)c1ccccc1" , system: cathepsin H (Capra hircus, UniProt A0A452G5L2).
Out: 33

In: Specify the recorded Ki for NC(=O)N1N=C(c2ccccc2)CC1c1ccc(Cl)cc1 (stereo not shown) , system: cathepsin H (Capra hircus, UniProt A0A452G5L2).
Out: 66

In: Specify the recorded Ki for "NC(=O)N/N=C(/C=C/c1cccc([N+](=O)[O-])c1)c1ccccc1" , system: cathepsin H (Capra hircus, UniProt A0A452G5L2).
Out: 23

In: Specify the recorded Ki for NC(=O)N1N=C(c2ccccc2)CC1c1ccccc1Cl (stereo not shown) , system: cathepsin H (Capra hircus, UniProt A0A452G5L2).
Out: 60
